target-or-system: L1196M mutant ALK kinase (Homo sapiens, UniProt Q9UM73, L1196M)
Sequence (Q9UM73 19-1620 L1196M): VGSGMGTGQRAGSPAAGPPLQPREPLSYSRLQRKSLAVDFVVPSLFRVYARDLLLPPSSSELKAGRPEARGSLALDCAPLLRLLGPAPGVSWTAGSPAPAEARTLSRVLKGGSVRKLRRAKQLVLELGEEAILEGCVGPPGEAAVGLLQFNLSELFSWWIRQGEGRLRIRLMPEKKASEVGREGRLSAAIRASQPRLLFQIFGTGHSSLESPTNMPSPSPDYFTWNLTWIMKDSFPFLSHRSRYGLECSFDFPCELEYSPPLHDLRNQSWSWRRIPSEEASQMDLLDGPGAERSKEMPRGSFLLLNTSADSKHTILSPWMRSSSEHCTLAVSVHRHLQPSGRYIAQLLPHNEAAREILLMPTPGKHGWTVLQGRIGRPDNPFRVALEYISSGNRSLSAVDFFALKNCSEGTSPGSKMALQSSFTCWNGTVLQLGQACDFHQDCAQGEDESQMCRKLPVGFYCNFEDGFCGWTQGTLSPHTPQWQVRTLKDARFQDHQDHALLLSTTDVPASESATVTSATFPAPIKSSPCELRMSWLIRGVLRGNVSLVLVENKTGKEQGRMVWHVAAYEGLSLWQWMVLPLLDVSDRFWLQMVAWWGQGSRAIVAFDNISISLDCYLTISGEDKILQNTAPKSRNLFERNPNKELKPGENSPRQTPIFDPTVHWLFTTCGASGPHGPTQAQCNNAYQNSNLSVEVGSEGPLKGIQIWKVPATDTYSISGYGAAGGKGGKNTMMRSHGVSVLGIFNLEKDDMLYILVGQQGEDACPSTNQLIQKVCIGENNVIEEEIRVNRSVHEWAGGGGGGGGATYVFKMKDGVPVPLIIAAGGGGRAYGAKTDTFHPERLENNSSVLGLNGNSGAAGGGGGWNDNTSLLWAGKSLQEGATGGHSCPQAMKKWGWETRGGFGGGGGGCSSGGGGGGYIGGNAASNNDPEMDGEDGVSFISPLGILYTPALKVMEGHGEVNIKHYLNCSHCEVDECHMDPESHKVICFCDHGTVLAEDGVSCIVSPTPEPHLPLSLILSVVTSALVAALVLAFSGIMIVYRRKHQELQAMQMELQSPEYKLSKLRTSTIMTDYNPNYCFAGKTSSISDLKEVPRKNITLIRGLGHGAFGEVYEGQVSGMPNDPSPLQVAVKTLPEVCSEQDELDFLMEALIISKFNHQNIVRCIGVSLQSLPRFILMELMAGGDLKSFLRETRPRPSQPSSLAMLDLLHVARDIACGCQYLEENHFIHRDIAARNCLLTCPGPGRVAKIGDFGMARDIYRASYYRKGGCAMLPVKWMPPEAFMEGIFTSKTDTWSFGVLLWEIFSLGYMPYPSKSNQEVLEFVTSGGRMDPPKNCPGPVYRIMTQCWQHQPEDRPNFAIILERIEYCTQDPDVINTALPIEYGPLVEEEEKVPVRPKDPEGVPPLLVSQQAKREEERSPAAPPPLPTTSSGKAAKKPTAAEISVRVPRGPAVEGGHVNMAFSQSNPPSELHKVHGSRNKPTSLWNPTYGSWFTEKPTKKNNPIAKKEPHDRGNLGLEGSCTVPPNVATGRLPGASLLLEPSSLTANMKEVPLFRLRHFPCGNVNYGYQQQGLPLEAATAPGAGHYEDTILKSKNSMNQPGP
assay-explanation: HTRF KinEASE-TK assay, inhibitory activity on L1196M mutant ALK kinase
test-conditions: L1196M mutant ALK 1 ng/μl, substrate 1 μM, ATP 5 μM, 30° C. 35 minutes, read-out: Inhibition on ALK kinases (L1196M mutant), IC50
quantity: IC50 (nM)

- Cc1cc(Nc2ncc(Cl)c(Nc3cn(C)nc3S(=O)(=O)C(C)C)n2)c(OC2CC2)cc1C1CCN(S(C)(=O)=O)CC1 [Final product 167]: 11
- Cc1cc(Nc2ncc(Cl)c(Nc3cn(C)nc3S(=O)(=O)C(C)C)n2)c(OC(C)C)cc1C1CCN(C(C)(C)CO)CC1 [Final product 152]: 9
- CCN(CC)[C@H]1CC[C@H](c2cc(OC3CC3)c(Nc3ncc(Cl)c(Nc4cn(C)nc4S(=O)(=O)C(C)C)n3)cc2C)CC1 [Final product 192]: 12
- Cc1cc(Nc2ncc(Cl)c(Nc3cn(C)nc3S(=O)(=O)C(C)C)n2)c(OC2CC2)cc1OC1CCN(C)CC1 [Final product 111]: 7

A. CC(C)S(=O)(=O)c1nn(C)cc1Nc1nc(Nc2cc(C#N)c(C3CCN(C)CC3)cc2OC2CC2)ncc1Cl [Final product 49]
B. CC(C)S(=O)(=O)c1nn(C)cc1Nc1nc(Nc2ccc(C3CCN(S(C)(=O)=O)C3)cc2OC2CC2)ncc1Cl (stereo not shown) [Final product 172]
C. CC(C)S(=O)(=O)c1nn(C2CC2)cc1Nc1nc(Nc2cc(F)c(C3CCN(C)CC3)cc2OC2CC2)ncc1Cl [Final product 46]
Inquiry: Order the entries by their reported IC50, beginning at the minimum. Reply: labels, ordered per the request.
Reply text: C, B, A
(C: 6 nM, B: 9 nM, A: 13 nM)
